Listing: melting point of selected compounds
METRIC_NAME: melting point

INSERT INTO assay_data (compound, endpoint_result) VALUES
  ('CCCNC(=O)Nc1ccc2oc([N+](=O)[O-])c(-c3ccccc3)c2c1', '199 to 201 °C'),
  ('O=c1c(Br)c(SCc2ccccc2)ccn1Cc1ccccc1', '181 to 182 °C'),
  ('CCCCn1c(C=O)cnc1Cc1c(F)cccc1Cl', '88 to 90 °C'),
  ('Nc1cccc2[nH]c3c(c12)CCN(Cc1ccccc1)CC3', '164 to 165 °C'),
  ('CCC(CC)Nc1nc2c(c(-c3c(C)cc(C)cc3C)cn2C)c(=O)n1C', '174 to 176 °C'),
  ('COC(=O)c1cc2cc([N+](=O)[O-])cc(O)c2o1', '252 to 253 °C'),
  ('OC[C@@H]1CNCc2cc3ccc(C(F)(F)F)cc3n21', '126 to 127 °C'),
  ('CCOC(=O)c1ccc(OCc2ccc3ccccc3c2)c(OC)c1', '86 to 87 °C'),
  ('CC(C)N(N)C(=O)N1CCCC1C(=O)OC(C)(C)C (stereo not given)', '87 to 91 °C'),
  ('Cc1cc(NSc2ccccc2[N+](=O)[O-])ccc1Oc1ncc(Cl)cn1', '74 to 85 °C');

* * *

Item-by-item account of melting point
METRIC_NAME: melting point

INSERT INTO results (compound, endpoint_result) VALUES
  ('COC(=O)c1cc(=O)c2oc3ccccc3c(=O)c2[nH]1', '244 to 245 °C'),
  ('COc1ccc(NCC(O)CO)cc1 (stereo not given)', '151 to 153 °C'),
  ('CC(C)(C)OC(=O)Cc1n[nH]c2c(=O)[nH]c3cc(Cl)ccc3c(=O)c12', '226 to 229 °C'),
  ('O=C(O)CCCOc1ccc(OCCC(c2ccccc2)(c2ccccc2)c2ccccc2)cc1', '138 to 139 °C'),
  ('COC(=O)C=C1CCCCC1c1cc(OC)cc(OC)c1 (stereo not given)', '80 to 81 °C'),
  ('O=[N+]([O-])c1ccc(CSSCc2ccc([N+](=O)[O-])cc2)cc1', '126 °C'),
  ('c1ccc(-c2cc3ccccc3s2)cc1', '171 to 172 °C'),
  ('NC(=O)CNc1c(F)cc([N+](=O)[O-])cc1F', '160 to 162 °C'),
  ('CCCCN(CCCC)CCCOc1ccc(C(=O)c2c(-c3ccccc3)cc3cc(C(=O)OCC)ccn23)cc1', '148 to 151 °C'),
  ('COC(=O)c1cccc2c3nc4ccccc4[nH]c-3nc12', '251 to 255 °C');

* * *

melting point by entry:
METRIC_NAME: melting point

INSERT INTO results (compound, metric_name, endpoint_result) VALUES
  ('COc1cc(C(=O)c2c(C)nn(C)c2O)cc(OC)c1OC', 'melting point', '189 to 191 °C'),
  ('O=C(NC1CCCCC1)N1CCC(c2cn(C(=O)NC3CCCCC3)cn2)CC1', 'melting point', '166 °C'),
  ('Cc1ccc(C)c(-c2sc(NC(=O)[C@@H]3CC4CCC3CC4)c(C#N)c2Cl)c1', 'melting point', '208 to 210 °C'),
  ('Cc1ccc(O)c(C)c1[N+](=O)[O-]', 'melting point', '99 to 101 °C'),
  ('O=C(Nc1ccc(Oc2ccnc(NCC3CC3)n2)c2ccccc12)c1cc(F)cc(N2CCOCC2)c1', 'melting point', '116 to 117 °C'),
  ('CN1C(=O)NC(=O)C1O (centres undefined)', 'melting point', '135 to 136 °C'),
  ('COc1cc(OC)cc(N2CCN(C(=S)Nc3cc(C(C)O)c(C)cc3OC)CC2)c1 (centres undefined)', 'melting point', '146 to 148 °C'),
  ('CCCCCCCCCCCCCCOc1ccc(O)c(C(=O)OC)c1', 'melting point', '49 to 53 °C'),
  ('CCOC(=O)/C=C(C)/C=C/C=C(\C)C1=Cc2cc(C(C)(C)C)cc(C)c2OC1', 'melting point', '73 °C'),
  ('CC(C)(C)OC(=O)N[C@@H]1CN(c2ccccc2)c2ccccc2NC1=O', 'melting point', '160 to 165 °C'),
  ('CN1CC(O)c2cc(S(N)(=O)=O)sc2S1(=O)=O (single isomer, unassigned; (+))', 'melting point', '168 °C'),
  ('CCOC(=O)COc1cccc2c1CCc1sc(SCC(c3ccccc3)c3ccccc3)nc1-2', 'melting point', '92 to 93 °C'),
  ('Cc1c(Cl)nc2sc(SCc3ccccc3)nn2c1=O', 'melting point', '102 to 104 °C'),
  ('COC(=O)CCc1oc(=O)[nH]c1-c1ccc(Cl)cc1', 'melting point', '147 to 148 °C'),
  ('CC(C)(C)OC(=O)N1CC=C(c2ccc3oc(-c4ccc(S(C)(=O)=O)cc4F)nc3c2)CC1', 'melting point', '149 to 151 °C'),
  ('Cc1c(-c2cccc(O)c2O)c(=O)oc2cc(O)ccc12', 'melting point', '273 to 274 °C'),
  ('Cn1cc(C(=O)Nc2ccccc2-c2cc(F)ccc2F)c(C(F)(F)F)n1', 'melting point', '110 to 112 °C'),
  ('COc1ccc(-c2cc(=Nc3ccc(OCC4CO4)cc3)n(C)c(=O)n2C)cc1OC (centres undefined)', 'melting point', '155 to 157 °C'),
  ('O=C(O)COc1cccc(CCn2ncc(-c3ccccc3)c2-c2ccccc2)c1', 'melting point', '133 to 138 °C'),
  ('COc1ccc(-c2ccc3c(c2)C=C(C(=O)Nc2ccc(CN(C)C4CCOCC4)cc2)CCS3(=O)=O)cc1OC', 'melting point', '195 to 197 °C'),
  ('CCN(CC)CCNC(=O)c1cc(Cl)c(N)cc1OCCSC', 'melting point', '118 to 120 °C'),
  ('O=C(OCC1CCCN1)N1CCN(c2cc(N3CCCC3)nc(N3CCCC3)n2)CC1 (single isomer, unassigned; (+))', 'melting point', '137 to 138 °C'),
  ('CCOC(=O)C(=O)c1nsc(NC(=O)c2ccccc2)n1', 'melting point', '178 to 180 °C'),
  ('Cc1nn(-c2cc([N+](=O)[O-])c(Cl)cc2F)c(Cl)c1Br', 'melting point', '135 to 137 °C'),
  ('Cc1cc(F)c(-n2c(=O)oc3c(c2=O)CCC3)cc1OC(C)C', 'melting point', '131 to 133 °C'),
  ('CCOC(=O)c1c(N2CCN(C(=O)c3cccs3)CC2)c2cc(F)cnc2n(CC(=O)c2ccccc2)c1=O', 'melting point', '262 °C'),
  ('CCOC(=O)c1nn(-c2ccccc2Br)c(=O)c(C#N)c1C', 'melting point', '106 to 108 °C'),
  ('Cn1cnc2c1c1n[nH]c(=S)n1c(=O)n2Cc1ccccc1', 'melting point', '278 °C'),
  ('O=C1OC(CI)CN1c1cc(F)c(-c2cccnc2)c(F)c1 (centres undefined)', 'melting point', '133 to 134 °C'),
  ('CCc1cc(-c2cccnc2)nn1-c1ccc(NC(=O)c2cc3ccccc3n2C)cc1', 'melting point', '178 to 179 °C'),
  ('Cc1cc(C)c(C)c(COc2cccc(-c3ccoc3C(=O)NNC(=O)c3ccc(O)c([N+](=O)[O-])c3)c2)c1C', 'melting point', '140 to 142 °C'),
  ('O=CN(N=Cc1cccnc1)c1ccccc1', 'melting point', '129 to 132 °C'),
  ('Cc1nnc(-c2ccc3c(=O)n(CC(C)C)c(CN)c(-c4ccccc4)c3c2)o1', 'melting point', '179 to 181 °C'),
  ('COC(=O)C1=CC(=O)CC(c2ccc(Cl)c(OC)c2F)N1 (centres undefined)', 'melting point', '165 to 166 °C'),
  ('CC1(C)CC(=O)C2=C(C1)NC1=C(C(=O)CC(C)(C)C1)C2c1ccc(Cl)c(Oc2ccncc2)c1', 'melting point', '242 to 244 °C'),
  ('CCCCC1(C2CCCC2)Cc2cc(OCCCC(=O)O)c(Cl)c(Cl)c2C1=O (centres undefined)', 'melting point', '139 to 140 °C'),
  ('CCCCCCCCc1cnc(-c2ccc(F)cc2)nc1', 'melting point', '23.5 °C'),
  ('Cc1ccc(Cn2[nH]c(N)cc2=O)cc1', 'melting point', '149 °C'),
  ('CCCCCCCCCCCCCCS(N)(=O)=O', 'melting point', '92 to 93 °C');

* * *

melting point values for the compounds below.
METRIC_NAME: melting point

INSERT INTO measurements (compound, metric_name, endpoint_result) VALUES
  ('Cc1cc(C)c(C(=O)c2ccccc2)c(OCC2CO2)c1 (stereo unspecified)', 'melting point', '72 to 74 °C'),
  ('CCNC(=O)NC(N)=O', 'melting point', '158 to 160 °C'),
  ('CC(C)(CO)NS(=O)(=O)c1cc(NC(=O)c2cnn3c(C(F)(F)F)cc(-c4ccc(C(F)(F)F)c(OCC(F)(F)F)c4)nc23)c(Cl)s1', 'melting point', '264 °C'),
  ('Cn1cc(-c2ccccc2)c(=O)c(-c2cccc(CC3CCCCC3)c2)c1', 'melting point', '147 to 148 °C'),
  ('CCn1ncc2c(Cl)c3c(nc21)CCc1ccccc1C3=O', 'melting point', '111 to 113 °C'),
  ('COC(=O)CCn1c(C)c(Cc2cccnc2)c2c(CCC(=O)O)cccc21', 'melting point', '165 to 167 °C'),
  ('CC(C(=O)O)c1ccc(C(=O)c2cc3ccsc3s2)cc1 (stereo unspecified)', 'melting point', '150 °C'),
  ('CSc1ccc(C2=C(c3ccccc3)C(=O)OC23CCCC3)cc1', 'melting point', '147 to 148 °C'),
  ('CC(C)(C)OC(=O)N1CCN(C(=O)SCc2ccc(O[Si](C)(C)C(C)(C)C)cc2)CC1', 'melting point', '53 to 54 °C'),
  ('Cc1ccc(CN2CCN(CCCOc3ccc4[nH]c(=O)cc(C)c4c3)CC2)cc1', 'melting point', '162 to 163 °C'),
  ('COc1cc2c(cc1Cl)CC(C)=NN=C2c1ccc(N)cc1', 'melting point', '198 to 200 °C'),
  ('COc1cccc2c1Sc1ccccc1C21CCN(C#N)CC1', 'melting point', '145 to 146 °C'),
  ('CCCNC(=O)c1cc2cc(OCCNC[C@H](O)COc3ccccc3)ccc2o1', 'melting point', '127 to 128 °C'),
  ('CCC(C)COc1ccc(N=Nc2ccc(F)cc2)cc1 (stereo unspecified)', 'melting point', '64.3 to 65 °C'),
  ('CC(C)C(NC(=O)NCc1ccccn1)C(=O)NC(Cc1ccccc1)C(O)C(Cc1ccccc1)NC(=O)C(NC(=O)NCc1ccccn1)C(C)C (stereo unspecified)', 'melting point', '198 to 199 °C'),
  ('COc1ccc(C)c(NC(=O)CC2C3CC4CC(C3)CC2C4)c1 (stereo unspecified)', 'melting point', '193 to 196 °C'),
  ('CC(C(SC(=S)N(C)C)c1ccccc1)[N+](=O)[O-] (stereo unspecified)', 'melting point', '92 to 94 °C'),
  ('OCc1nnc2n1-c1ccc(Cl)cc1C(c1ccccc1Cl)=NC2', 'melting point', '236 to 239 °C'),
  ('CCn1c(=O)n(CCCCC(C)=O)c(=O)c2cnn(C)c21', 'melting point', '112 °C'),
  ('C=CCCCCOc1ccc(OCCCCC=C)cc1', 'melting point', '29 to 30 °C'),
  ('CC(C)[C@@H](CO)Nc1nc(Nc2cccc(NS(C)(=O)=O)c2)nc2[nH]ccc12', 'melting point', '106 to 109 °C');
